system: T-47D breast; assay: NCI tumour cell line growth inhibition, 48 h
Property: TGI; scope: individual molecules

- molecule: "O/N=C1/COC(C(F)(F)F)(C(F)(F)F)C1"
  comparison_sign: ">"
  TGI / µM: 100
- molecule: "S=C(NCc1ccccc1)c1nc[nH]c1C(=S)NCc1ccccc1"
  comparison_sign: "="
  TGI / µM: 17.4
- molecule: "CC(C)(C)C(=O)OCOP(=O)(OCOC(=O)C(C)(C)C)C1CCCN(O)C1=O (stereo not given)"
  comparison_sign: "="
  TGI / µM: 17.8
- molecule: "CC(C)=C[C@@H]1C[C@H](C)[C@H]2CC[C@H](C)C3=C2[C@](O)(OC3=O)[C@]1(C)O"
  comparison_sign: ">"
  TGI / µM: 100
- molecule: "CC(C)C1OC23CCCCC2C(C#N)(C#N)C1(C#N)C(=N)O3 (stereo not given)"
  comparison_sign: "="
  TGI / µM: 71.7

---

Property: TGI; scope: individual compounds
test system: TK-10 renal; experiment: NCI tumour cell line growth inhibition, 48 h
property_name: TGI

- compound: "OCCN1CN(CCO)CN(c2nc(N3CN(CCO)CN(CCO)C3)nc(N3CN(CCO)CN(CCO)C3)n2)C1"
  property_name: "TGI"
  observed_measurement: "0.0183 µg/mL"
- compound: "NNC(N)Nc1ccccc1 (configuration not stated)"
  property_name: "TGI"
  observed_measurement: "> 100 µM"
- compound: "O=C1CCCC/C(=C/c2ccccc2)N1"
  property_name: "TGI"
  observed_measurement: "> 100 µM"
- compound: "CCCCCCCCCCCCCCCCCCNc1ccn(C2OC(COP(=O)(O)OCC3OC(n4cc(C)c(=O)[nH]c4=O)CC3O)C(O)C2O)c(=O)n1 (configuration not stated)"
  property_name: "TGI"
  observed_measurement: "22.3 µM"
- compound: "COC(C)(C)C1=CCC(C)CC1 (configuration not stated)"
  property_name: "TGI"
  observed_measurement: "> 100 µM"
- compound: "CCC[CH2][Ge]([CH2]CCC)([CH2]CCC)[O]C(=O)CC(=O)c1ccccc1"
  property_name: "TGI"
  observed_measurement: "21 µM"
- compound: "CN1C(=O)N/C(=C\\c2ccc(S(=O)(=O)NN)cc2)C1=O"
  property_name: "TGI"
  observed_measurement: "> 100 µM"
- compound: "CC1CC(N)=Nc2ccccc2N1 (configuration not stated)"
  property_name: "TGI"
  observed_measurement: "> 100 µM"
- compound: "CN(C)Cc1cc(C(=O)/C=C/c2ccc(Cl)cc2)cc(CN(C)C)c1O"
  property_name: "TGI"
  observed_measurement: "39 µM"
- compound: "COc1ccccc1C1C(C(=O)O)=C(CO)Oc2cc3c(cc21)OCO3 (configuration not stated)"
  property_name: "TGI"
  observed_measurement: "> 100 µM"
- compound: "O=C1OC(c2ccccc2)=N/C1=C/C=C/c1ccco1"
  property_name: "TGI"
  observed_measurement: "> 100 µM"
- compound: "O=C(c1ccc(O)cc1)C1c2c3c(cc(O)c2C(c2ccc(O)cc2)C1c1cc(O)cc(O)c1)OC(c1ccc(O)cc1)C3c1cc2c(cc1O)OC(c1ccc(O)cc1)C2c1cc(O)cc(O)c1 (configuration not stated)"
  property_name: "TGI"
  observed_measurement: "> 12.5 µM"
- compound: "Nc1nc(Cl)c(N)c(NC23CC4CC(CC(C4)C2)C3)n1"
  property_name: "TGI"
  observed_measurement: "5.54 µM"
- compound: "C=C(C)[C@@]12OC3(/C=C/C=C/CCCCC)O[C@@H]1[C@@H]1[C@@H]4O[C@]4(CO)[C@@H](O)[C@]4(O)C(=O)C(C)=C[C@H]4[C@@]1(O3)[C@H](C)[C@H]2OC(=O)c1ccccc1"
  property_name: "TGI"
  observed_measurement: "2.17 µM"
- compound: "CC(=O)OCCn1cnc2nc(Nc3ccccc3)nc(Cl)c21"
  property_name: "TGI"
  observed_measurement: "> 100 µM"
- compound: "CC(=O)NC1C(OCc2ccccc2)OC(CO)C(O)C1OC(C)C(=O)NC(C)C(=O)NC(CCC(=O)NCCCNc1c2ccccc2nc2cccc([N+](=O)[O-])c12)C(N)=O (configuration not stated)"
  property_name: "TGI"
  observed_measurement: "9.97 µM"
- compound: "C[N+](C)([O-])CCC=C1c2ccccc2CCc2ccccc21"
  property_name: "TGI"
  observed_measurement: "> 100 µM"
- compound: "COC(=O)c1cc2c3ccccc3n(C(C)=O)c2cn1"
  property_name: "TGI"
  observed_measurement: "> 100 µM"
- compound: "C=C(C=O)[C@@H]1C2OC(=O)C(=C)[C@@H]2CC(O)[C@@]1(C)CC (some centres not stated)"
  property_name: "TGI"
  observed_measurement: "29.9 µM"
- compound: "CCCCCCCCCC/C=C/CC(=O)SCCNC(=O)CCNC(=O)[C@@H](O)C(C)(C)COP(=O)(O)OP(=O)(O)OCC1OC(n2cnc3c(N)ncnc32)C(O)C1OP(=O)(O)O (some centres not stated)"
  property_name: "TGI"
  observed_measurement: "> 10 µM"
- compound: "C[C@]12C=CC(=O)C=C1CC[C@H]1[C@@H]3C[C@@H](O)[C@](O)(C(=O)CO)[C@@]3(C)C[C@H](O)[C@@]12F"
  property_name: "TGI"
  observed_measurement: "> 100 µM"
- compound: "C[As](C)SC1OC(CO)C(O)C1O (configuration not stated)"
  property_name: "TGI"
  observed_measurement: "0.816 µM"
- compound: "COc1ccc(C(=O)Sc2c(-c3ccccc3)c(=O)n(-c3ccccc3)c(=S)n2-c2ccccc2)cc1"
  property_name: "TGI"
  observed_measurement: "> 100 µM"
- compound: "COc1ccc(C2CC(=O)CC(c3ccc(OC)cc3)C23C(=O)NC(=O)NC3=O)cc1 (configuration not stated)"
  property_name: "TGI"
  observed_measurement: "> 100 µM"
- compound: "CC1=Nc2ccccc2C1C(Cc1ccccc1N)c1c(C)[nH]c2ccccc12 (configuration not stated)"
  property_name: "TGI"
  observed_measurement: "30.8 µM"
- compound: "Cc1cc(N(CCC#N)CCC#N)ccc1/C(N=Nc1ccc([N+](=O)[O-])cc1)=N\\NC(=O)c1cc(Cl)ccc1C(=O)c1ccccc1"
  property_name: "TGI"
  observed_measurement: "> 100 µM"
- compound: "C=C1CC(c2ccc(OCCCN3C(=O)c4ccccc4C3=O)c(OC)c2)OC1=O (configuration not stated)"
  property_name: "TGI"
  observed_measurement: "10.8 µM"
- compound: "C=C(CCCCC)CN1CCCC1[C@@](C)(O)CC(=O)OCC (some centres not stated)"
  property_name: "TGI"
  observed_measurement: "> 100 µM"
- compound: "CC(=O)n1nc(-c2ccccc2)n(/N=C/c2ccc([N+](=O)[O-])cc2)c1=O"
  property_name: "TGI"
  observed_measurement: "> 100 µM"
- compound: "CCCCN(CCCC)CC(C(=O)Nc1ccc([N+](=O)[O-])cc1[N+](=O)[O-])/C(C)=N\\NC(=S)NN (configuration not stated)"
  property_name: "TGI"
  observed_measurement: "> 100 µM"
- compound: "C=C1C[C@@H]2O[C@H]3[C@H]4[C@@H](C[C@@H](C)[C@@H](OC(C)=O)[C@H]42)[C@@H](C)CO[C@@]3(C)[C@H](OC(C)=O)C[C@H]1O"
  property_name: "TGI"
  observed_measurement: "> 100 µM"
- compound: "O=[N+]([O-])c1ccc(C=C2C(Cl)=C(Cl)C(Cl)=C2Cl)cc1"
  property_name: "TGI"
  observed_measurement: "7.58 µM"
- compound: "Cc1cc(=O)[nH]c(NN2C(Cl)C(=O)C2c2cccc(O)c2)n1 (configuration not stated)"
  property_name: "TGI"
  observed_measurement: "> 100 µM"
- compound: "O=[N+]([O-])c1nccn1CC(O)c1ccc(F)cc1 (configuration not stated)"
  property_name: "TGI"
  observed_measurement: "> 100 µM"
- compound: "COc1ccc(N(C)c2ncnc3occ(C)c23)cc1"
  property_name: "TGI"
  observed_measurement: "> 100 µM"
- compound: "O=[N+]([O-])c1ccccc1S(=O)(=O)c1cc(Cl)cc2c1NCCC2"
  property_name: "TGI"
  observed_measurement: "> 100 µM"
- compound: "CCN(CC)CCOc1ccc(/C=C(\\C#N)c2ccc(OCCN(CC)CC)cc2)cc1"
  property_name: "TGI"
  observed_measurement: "> 91.3 µM"
